# relative viability annotations
- Tested on: NCI-H322M
- experimental-details: relative viability (nuclei count vs DMSO), 5 days (fraction); higher = more cells survive
- cond: first compound 1 µM
Lab note: jot the number down without any unit.

Reference set, count: 4
- compound: "NC(=O)Nc1cc(-c2cccc(F)c2)sc1C(=O)N[C@H]1CCCNC1 [AZD7762] + Cc1nc(Nc2ncc(C(=O)Nc3c(C)cccc3Cl)s2)cc(N2CCN(CCO)CC2)n1 [Dasatinib] (partner 0.075 µM)"
  study-target: "NCI-H322M"
  relative viability: 0.256
- compound: "NC(=O)Nc1cc(-c2cccc(F)c2)sc1C(=O)N[C@H]1CCCNC1 [AZD7762] + CS(=O)(=O)CCNCc1ccc(-c2ccc3ncnc(Nc4ccc(OCc5cccc(F)c5)c(Cl)c4)c3c2)o1 [Lapatinib] (partner 2 µM)"
  study-target: "NCI-H322M"
  relative viability: 0.456
- compound: "NC(=O)Nc1cc(-c2cccc(F)c2)sc1C(=O)N[C@H]1CCCNC1 [AZD7762] + O=C(CCCCCCC(=O)Nc1ccccc1)NO [Vorinostat] (partner 1 µM)"
  study-target: "NCI-H322M"
  relative viability: 0.478
- compound: "NC(=O)Nc1cc(-c2cccc(F)c2)sc1C(=O)N[C@H]1CCCNC1 [AZD7762] + C[C@@H](Oc1cc(-c2cnn(C3CCNCC3)c2)cnc1N)c1c(Cl)ccc(F)c1Cl [Crizotinib] (partner 1 µM)"
  study-target: "NCI-H322M"
  relative viability: 0.417

Turning now to a further compound:
Problem: I am curious: what relative viability value has been reported for NC(=O)Nc1cc(-c2cccc(F)c2)sc1C(=O)N[C@H]1CCCNC1 [AZD7762] + CC(C)C[C@H](NC(=O)[C@H](Cc1ccccc1)NC(=O)c1cnccn1)B(O)O [Bortezomib] (partner 0.002 µM) ?
Solution: 1.33

###

- System: HARA
- experimental-details: relative viability (nuclei count vs DMSO), 5 days (fraction); higher = more cells survive
- cond: first compound 0.5 µM
// returns False unless relative viability is strictly below 0.4, in which case True

Problem: Is relative viability strictly under 0.4 for the entry CC1(C)CCC(c2ccc(Cl)cc2)=C(CN2CCN(c3ccc(C(=O)NS(=O)(=O)c4ccc(N[C@H](CCN5CCOCC5)CSc5ccccc5)c(S(=O)(=O)C(F)(F)F)c4)cc3)CC2)C1 [Navitoclax] + C[C@@H](Oc1cc(-c2cnn(C3CCNCC3)c2)cnc1N)c1c(Cl)ccc(F)c1Cl [Crizotinib] (partner 1 µM) ?
Solution: False

###

- Test system: CAL-12T
- experimental-details: relative viability (nuclei count vs DMSO), 5 days (fraction); higher = more cells survive
- cond: first compound 1.265 µM
Friendly reminder: relative viability below 1 is rule met, at or above is rule not met.

Reference set (3 entries):
- molecule: "O=C(O)c1ccc(-c2c[nH]c3ncc(-c4ccccc4)cc23)cc1C1CCCC1 + COc1cccc2cc(-c3nc([C@H]4CC[C@H](C(=O)O)CC4)n4ncnc(N)c34)[nH]c12 [OSI-027] (partner 0.5 µM)"
  study-target: "CAL-12T"
  assigned-category: "rule met"
- molecule: "O=C(O)c1ccc(-c2c[nH]c3ncc(-c4ccccc4)cc23)cc1C1CCCC1 + O=C(CCCCCCC(=O)Nc1ccccc1)NO [Vorinostat] (partner 1 µM)"
  study-target: "CAL-12T"
  assigned-category: "rule met"
- molecule: "O=C(O)c1ccc(-c2c[nH]c3ncc(-c4ccccc4)cc23)cc1C1CCCC1 + Cc1nc(NC(=O)N2CCC[C@H]2C(N)=O)sc1-c1ccnc(C(C)(C)C(F)(F)F)c1 [Alpelisib] (partner 2 µM)"
  study-target: "CAL-12T"
  assigned-category: "rule not met"

From here, focus on the item given below.
Problem: Is the reported relative viability for O=C(O)c1ccc(-c2c[nH]c3ncc(-c4ccccc4)cc23)cc1C1CCCC1 + Cc1cc(Nc2cc(N3CCN(C)CC3)nc(Sc3ccc(NC(=O)C4CC4)cc3)n2)n[nH]1 [Tozasertib] (partner 0.1 µM) strictly below 1?
Solution: rule met

###

- System: NCI-H596
- experimental-details: relative viability (nuclei count vs DMSO), 5 days (fraction); higher = more cells survive
- cond: first compound 1 µM
Mark y for relative viability under 0.6, n if at or over.

Previously resolved entries follow.
- molecule: "NC(=O)Nc1cc(-c2cccc(F)c2)sc1C(=O)N[C@H]1CCCNC1 [AZD7762] + CS(=O)(=O)CCNCc1ccc(-c2ccc3ncnc(Nc4ccc(OCc5cccc(F)c5)c(Cl)c4)c3c2)o1 [Lapatinib] (partner 2 µM)"
  assigned-category: "n"
- molecule: "NC(=O)Nc1cc(-c2cccc(F)c2)sc1C(=O)N[C@H]1CCCNC1 [AZD7762] + Cc1nc(NC(=O)N2CCC[C@H]2C(N)=O)sc1-c1ccnc(C(C)(C)C(F)(F)F)c1 [Alpelisib] (partner 2 µM)"
  assigned-category: "y"

Problem: Item NC(=O)Nc1cc(-c2cccc(F)c2)sc1C(=O)N[C@H]1CCCNC1 [AZD7762] + Cc1nc(Nc2ncc(C(=O)Nc3c(C)cccc3Cl)s2)cc(N2CCN(CCO)CC2)n1 [Dasatinib] (partner 0.075 µM) : relative viability beneath 0.6, strictly?
Solution: y

Problem: Lab note: confirm whether the reported relative viability for this molecule is below 0.6, equality not counting. molecule: NC(=O)Nc1cc(-c2cccc(F)c2)sc1C(=O)N[C@H]1CCCNC1 [AZD7762] + CC(=O)Nc1cccc(-n2c(=O)n(C3CC3)c(=O)c3c(Nc4ccc(I)cc4F)n(C)c(=O)c(C)c32)c1 [Trametinib] (partner 0.02 µM)
Solution: n

###

- Tested on: BEN
- experimental-details: relative viability (nuclei count vs DMSO), 5 days (fraction); higher = more cells survive
- cond: first compound 8 µM
value-kind: relative viability
Output spec: single numeric token, no unit.

- compound: "C=C1C(=O)O[C@@H](CCCCCCCC)[C@@H]1C(=O)O [C-75] + CCNC(=O)c1noc(-c2cc(C(C)C)c(O)cc2O)c1-c1ccc(CN2CCOCC2)cc1 [Luminespib] (partner 0.01 µM)"
  relative viability: 0.181
- compound: "C=C1C(=O)O[C@@H](CCCCCCCC)[C@@H]1C(=O)O [C-75] + CC1(C)CCC(c2ccc(Cl)cc2)=C(CN2CCN(c3ccc(C(=O)NS(=O)(=O)c4ccc(N[C@H](CCN5CCOCC5)CSc5ccccc5)c(S(=O)(=O)C(F)(F)F)c4)cc3)CC2)C1 [Navitoclax] (partner 0.5 µM)"
  relative viability: 0.0596

Problem: Request: relative viability, test system BEN, entry C=C1C(=O)O[C@@H](CCCCCCCC)[C@@H]1C(=O)O [C-75] + Nc1nc2[nH]cc(CCc3ccc(C(=O)N[C@@H](CCC(=O)O)C(=O)O)cc3)c2c(=O)[nH]1 [Pemetrexed] (partner 0.2 µM)
Solution: 0.766

###

- Test system: BEN
- experimental-details: relative viability (nuclei count vs DMSO), 5 days (fraction); higher = more cells survive
- cond: first compound 0.5 µM
Entries annotated with measured relative viability
Give the value as a plain number.

- compound: "CC1(C)CCC(c2ccc(Cl)cc2)=C(CN2CCN(c3ccc(C(=O)NS(=O)(=O)c4ccc(N[C@H](CCN5CCOCC5)CSc5ccccc5)c(S(=O)(=O)C(F)(F)F)c4)cc3)CC2)C1 [Navitoclax] + Nc1nc2[nH]cc(CCc3ccc(C(=O)N[C@@H](CCC(=O)O)C(=O)O)cc3)c2c(=O)[nH]1 [Pemetrexed] (partner 0.2 µM)"
  study-target: "BEN"
  relative viability: 0.418
- compound: "CC1(C)CCC(c2ccc(Cl)cc2)=C(CN2CCN(c3ccc(C(=O)NS(=O)(=O)c4ccc(N[C@H](CCN5CCOCC5)CSc5ccccc5)c(S(=O)(=O)C(F)(F)F)c4)cc3)CC2)C1 [Navitoclax] + CCNC(=O)c1noc(-c2cc(C(C)C)c(O)cc2O)c1-c1ccc(CN2CCOCC2)cc1 [Luminespib] (partner 0.01 µM)"
  study-target: "BEN"
  relative viability: 0.0778

Could you now look at the following compound, please?
Problem: Name the reported relative viability value associated with the compound CC1(C)CCC(c2ccc(Cl)cc2)=C(CN2CCN(c3ccc(C(=O)NS(=O)(=O)c4ccc(N[C@H](CCN5CCOCC5)CSc5ccccc5)c(S(=O)(=O)C(F)(F)F)c4)cc3)CC2)C1 [Navitoclax] + C[C@]1(O)C[C@@H](c2nc(-c3ccc4ccc(-c5ccccc5)nc4c3)c3c(N)nccn32)C1 [Linsitinib] (partner 1 µM)
Solution: 0.634

###

- System: NCI-H1395
- experimental-details: relative viability (nuclei count vs DMSO), 5 days (fraction); higher = more cells survive
- cond: first compound 0.8 µM
value-kind: relative viability
Keep the answer to the number alone.

- compound: "Oc1nc(-c2ccc(C(F)(F)F)cc2)nc2c1CSCC2 [XAV939] + CC1(C)CCC(c2ccc(Cl)cc2)=C(CN2CCN(c3ccc(C(=O)NS(=O)(=O)c4ccc(N[C@H](CCN5CCOCC5)CSc5ccccc5)c(S(=O)(=O)C(F)(F)F)c4)cc3)CC2)C1 [Navitoclax] (partner 0.5 µM)"
  study-target: "NCI-H1395"
  relative viability: 1.2

Problem: Consider the compound C=C1C(=O)O[C@@H](CCCCCCCC)[C@@H]1C(=O)O [C-75] + CCNC(=O)c1noc(-c2cc(C(C)C)c(O)cc2O)c1-c1ccc(CN2CCOCC2)cc1 [Luminespib] (partner 0.01 µM) and give its measured relative viability.
Solution: 0.713

Problem: relative viability for Oc1nc(-c2ccc(C(F)(F)F)cc2)nc2c1CSCC2 [XAV939] + CC(=O)c1c(C)c2cnc(Nc3ccc(N4CCNCC4)cn3)nc2n(C2CCCC2)c1=O [Palbociclib] (partner 0.5 µM) ?
Solution: 0.569

Problem: Param item = Oc1nc(-c2ccc(C(F)(F)F)cc2)nc2c1CSCC2 [XAV939] + COc1cc2c(Oc3ccc(NC(=O)C4(C(=O)Nc5ccc(F)cc5)CC4)cc3F)ccnc2cc1OCCCN1CCOCC1 [Foretinib] (partner 0.25 µM) ; retrieve measured relative viability.
Solution: 1

Problem: Please give the measured relative viability for this compound: C=C1C(=O)O[C@@H](CCCCCCCC)[C@@H]1C(=O)O [C-75] + CS(=O)(=O)CCNCc1ccc(-c2ccc3ncnc(Nc4ccc(OCc5cccc(F)c5)c(Cl)c4)c3c2)o1 [Lapatinib] (partner 2 µM)
Solution: 0.949

Problem: May I ask what relative viability has been recorded for C=C1C(=O)O[C@@H](CCCCCCCC)[C@@H]1C(=O)O [C-75] + COc1cc2c(Oc3ccc(NC(=O)C4(C(=O)Nc5ccc(F)cc5)CC4)cc3F)ccnc2cc1OCCCN1CCOCC1 [Foretinib] (partner 0.25 µM) ?
Solution: 0.948

Problem: Which relative viability is listed for C=C1C(=O)O[C@@H](CCCCCCCC)[C@@H]1C(=O)O [C-75] + C[C@]1(O)C[C@@H](c2nc(-c3ccc4ccc(-c5ccccc5)nc4c3)c3c(N)nccn32)C1 [Linsitinib] (partner 1 µM) ?
Solution: 1.12

Problem: # relative viability lookup, item Oc1nc(-c2ccc(C(F)(F)F)cc2)nc2c1CSCC2 [XAV939] + Cc1cc(Nc2cc(N3CCN(C)CC3)nc(Sc3ccc(NC(=O)C4CC4)cc3)n2)n[nH]1 [Tozasertib] (partner 0.1 µM)
Solution: 0.797

Problem: Bench note: what relative viability did Oc1nc(-c2ccc(C(F)(F)F)cc2)nc2c1CSCC2 [XAV939] + CS(=O)(=O)CCNCc1ccc(-c2ccc3ncnc(Nc4ccc(OCc5cccc(F)c5)c(Cl)c4)c3c2)o1 [Lapatinib] (partner 2 µM) show?
Solution: 0.985
